System under test: hKv1.5 (Homo sapiens, UniProt P22460)
Sequence (P22460 whole entry): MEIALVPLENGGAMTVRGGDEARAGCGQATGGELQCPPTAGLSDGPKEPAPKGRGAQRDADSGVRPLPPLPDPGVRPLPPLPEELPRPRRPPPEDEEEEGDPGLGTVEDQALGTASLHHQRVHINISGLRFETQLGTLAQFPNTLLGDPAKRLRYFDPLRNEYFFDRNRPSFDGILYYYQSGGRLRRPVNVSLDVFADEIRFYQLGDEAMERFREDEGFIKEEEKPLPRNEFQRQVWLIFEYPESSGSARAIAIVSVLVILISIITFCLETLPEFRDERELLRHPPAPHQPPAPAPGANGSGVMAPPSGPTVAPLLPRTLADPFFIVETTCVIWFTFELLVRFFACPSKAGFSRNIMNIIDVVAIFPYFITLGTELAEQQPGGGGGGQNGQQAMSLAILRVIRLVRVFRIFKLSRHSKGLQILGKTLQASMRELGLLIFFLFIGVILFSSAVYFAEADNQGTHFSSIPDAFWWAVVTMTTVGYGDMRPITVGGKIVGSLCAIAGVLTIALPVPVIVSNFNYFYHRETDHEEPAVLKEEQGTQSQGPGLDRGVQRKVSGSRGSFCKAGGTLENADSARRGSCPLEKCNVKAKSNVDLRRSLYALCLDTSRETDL
Assay summary: Selectivity patch clamp, MEL cells expressing hKv1.5
Quantity: pKd
Convention used: pKd is expressed as -log10 of the molar concentration.

pKd in this record for Clc1ccccc1C(c1ccccc1)(c1ccccc1)n1cccn1 [Compound T34] : 5.15

---

System under test: mKv1.1 (Mus musculus, UniProt P16388)
Sequence (P16388 whole entry): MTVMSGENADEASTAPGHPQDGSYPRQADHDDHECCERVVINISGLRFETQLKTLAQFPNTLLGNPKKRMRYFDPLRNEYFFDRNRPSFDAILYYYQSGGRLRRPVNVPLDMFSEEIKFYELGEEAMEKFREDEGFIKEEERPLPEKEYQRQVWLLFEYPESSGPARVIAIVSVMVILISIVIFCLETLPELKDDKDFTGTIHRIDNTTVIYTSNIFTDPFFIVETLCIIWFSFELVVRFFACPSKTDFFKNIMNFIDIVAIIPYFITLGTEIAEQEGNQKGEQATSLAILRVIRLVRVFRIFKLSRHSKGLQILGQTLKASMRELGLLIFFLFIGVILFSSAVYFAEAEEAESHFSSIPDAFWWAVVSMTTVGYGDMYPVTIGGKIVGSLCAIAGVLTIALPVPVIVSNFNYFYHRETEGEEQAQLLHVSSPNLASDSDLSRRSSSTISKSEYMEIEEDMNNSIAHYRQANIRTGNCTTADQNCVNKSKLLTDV
Assay summary: Selectivity patch clamp, L929 cells expressing mKv1.1
Quantity: Kd (µM)
Numeric only. Scale: µM

Per the records, this compound ( Clc1ccccc1C(c1ccccc1)(c1ccccc1)n1cccn1 [Compound T34] ) has Kd equal to 9.5

---

Assay summary: logP
Quantity: logP
// print number alone

Reported logP for `Clc1ccccc1C(c1ccccc1)(c1ccccc1)n1cccn1` was 4

---

System under test: rKv1.2 (Rattus norvegicus, UniProt P63142)
Sequence (P63142 whole entry): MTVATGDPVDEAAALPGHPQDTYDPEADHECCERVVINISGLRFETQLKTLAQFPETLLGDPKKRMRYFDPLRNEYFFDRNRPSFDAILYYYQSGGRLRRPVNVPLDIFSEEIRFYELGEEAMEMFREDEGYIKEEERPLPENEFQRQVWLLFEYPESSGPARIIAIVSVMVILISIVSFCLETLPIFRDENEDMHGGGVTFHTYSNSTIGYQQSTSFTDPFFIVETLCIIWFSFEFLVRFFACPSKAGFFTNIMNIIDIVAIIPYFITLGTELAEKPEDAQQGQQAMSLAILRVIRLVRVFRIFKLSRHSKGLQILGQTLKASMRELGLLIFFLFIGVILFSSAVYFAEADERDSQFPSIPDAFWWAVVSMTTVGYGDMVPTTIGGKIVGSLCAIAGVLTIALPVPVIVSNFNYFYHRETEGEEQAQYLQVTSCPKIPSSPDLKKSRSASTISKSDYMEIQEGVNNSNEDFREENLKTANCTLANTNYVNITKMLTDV
Assay summary: Selectivity patch clamp, L929 cells expressing rKv1.2
Quantity: pKd
Interpret pKd as the negative base-10 log of the concentration measured in mol/L.

Entry Clc1ccccc1C(c1ccccc1)(c1ccccc1)n1cccn1 [Compound T34] — recorded pKd = 5.35

---

System under test: Kv1.1–1.5, Kv3.1, Kv4.2, Jurkat-SKCa, BKCa, hSKM1-Na, CRAC and lymphocyte chloride channels
Assay summary: Selectivity on other cloned and native ion channels
Test conditions: all channels of the panel
Quantity: Kd

Measured Kd, `Clc1ccccc1C(c1ccccc1)(c1ccccc1)n1cccn1` : ≥ 5 µM

---

System under test: CYP3A4 (Homo sapiens, UniProt P08684)
Sequence (P08684 whole entry): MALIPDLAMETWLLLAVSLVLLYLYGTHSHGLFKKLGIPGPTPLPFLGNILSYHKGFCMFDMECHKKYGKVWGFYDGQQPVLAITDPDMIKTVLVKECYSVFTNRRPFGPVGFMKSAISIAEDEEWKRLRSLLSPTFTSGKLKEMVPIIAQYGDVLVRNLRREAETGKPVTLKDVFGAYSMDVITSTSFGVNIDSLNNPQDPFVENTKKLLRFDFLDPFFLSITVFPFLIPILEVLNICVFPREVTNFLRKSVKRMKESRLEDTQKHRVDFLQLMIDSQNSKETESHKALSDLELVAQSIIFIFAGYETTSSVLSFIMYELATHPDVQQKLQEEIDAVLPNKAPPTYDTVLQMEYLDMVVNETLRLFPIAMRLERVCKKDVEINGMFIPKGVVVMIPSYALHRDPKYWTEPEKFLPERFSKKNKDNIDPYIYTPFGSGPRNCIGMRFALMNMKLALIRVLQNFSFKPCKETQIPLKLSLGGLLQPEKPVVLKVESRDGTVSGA
Assay summary: in vitro
Test conditions: human
Experimental: The test substances shown in Table 8 were evaluated for their inhibitory effect on the catalytic activity of human cytochrome P450 enzyme. […] Inhibition of this enzyme was measured in 96 well plates with 7-benzyloxy-4-trifluoro-methylcoumarin (BFC) as the substrate and cDNA-derived enzymes in microsomes prepared from baculovirus-infected insect cells. […]
Provide the reported inhibition at 30 min, 10 μM of each item.
Use % as the unit, but write only the number.

So for `Clc1ccccc1C(c1ccccc1)(c1ccccc1)n1cccn1` , the logged inhibition at 30 min, 10 μM turned out to be -77.5

Record summary for `FC(F)(F)c1ccccc1C(c1ccccc1)(c1ccccc1)n1cccn1` : reported inhibition at 30 min, 10 μM = -26

get_value(item= `Clc1ccccc1C(Nc1ccncc1)(c1ccccc1)c1ccccc1` , readout=inhibition at 30 min, 10 μM) returns 74

For reference, reported inhibition at 30 min, 10 μM for `CCOC(=O)C(C(=O)OCC)C(c1ccccc1)(c1ccccc1)c1ccccc1` stands at 4

---

Record form. Attribute: melting point. Fill in for each entry.
Answer in °C, number only, no unit symbol.

Reported melting point of OC(c1ccccc1)(c1ccc(Cl)cc1)c1ccc(Cl)cc1 [Compound T4, Bis-(4-chlorophenyl)phenyl methanol] : 86

Record c1ccc(C(c2ccccc2)(c2ccccc2)n2cccn2)cc1 [Compound T11, 1-Trityl-1H-pyrazole] . Reported melting point: 202

GET /value?item= `c1ccc(C(Nc2nccs2)(c2ccccc2)c2ccccc2)cc1` &field=melting point returns 213

So for Clc1ccccc1C(NCCCNC(c1ccccc1)(c1ccccc1)c1ccccc1Cl)(c1ccccc1)c1ccccc1 [Compound T49] , the logged melting point turned out to be 198

compound OC(c1ccccc1)(c1ccccc1)c1cccc(Cl)c1 [Compound T2, (3-Chlorophenyl)diphenyl methanol] , melting point observed: 53

// melting point lookup, compound = Clc1ccccc1C(NCCNC(c1ccccc1)(c1ccccc1)c1ccccc1Cl)(c1ccccc1)c1ccccc1 [Compound T48] , result: 228

Sure, the documented melting point for CC(=O)NC(c1ccccc1)(c1ccccc1)c1ccccc1C(F)(F)F [Compound T83] is 185

// recorded melting point for NC(=O)NC(c1ccccc1)(c1ccccc1)c1ccccc1F [Compound T45, N-[(2-Fluorophenyl)diphenylmethyl] urea] : 225

Lookup result for OC(c1ccccc1)(c1ccccc1)c1cccs1 [Compound T9, (2-Thienyl)diphenyl methanol] ; measured melting point: 129

compound N#CC(c1ccccc1)(c1ccccc1)c1ccc(F)cc1 [Compound T27] , melting point observed: 76

Quick note, melting point for c1ccc(C(c2ccccc2)(c2ccccc2)n2cccc2)cc1 [Compound T10, 1-Trityl-1H-pyrrole] landed at 243

// melting point value for `NC(=O)NC(c1ccccc1)(c1ccccc1)c1ccccc1Cl` : 243

Value of measured melting point for the entry NC(=O)NC(c1ccccc1)(c1ccccc1)c1ccccc1 [Compound T24, N-trityl urea] : 238

melting point measured on OC(c1ccccc1)(c1ccccc1)c1ccccc1F [Compound T36, (2-Fluorophenyl)diphenyl methanol] = 116

melting point reading for `Clc1ccccc1C(c1ccccc1)(c1ccccc1)n1cccc1` : 184

Just so you know, measured melting point for NC(=O)NC(c1ccccc1)(c1ccccc1)c1ccc(F)cc1 [Compound T31, N-[(4-Fluorophenyl)diphenylmethyl] urea] came out at 222

For this compound ( c1ccc(C(NCc2ccc(CNC(c3ccccc3)(c3ccccc3)c3ccccc3)cc2)(c2ccccc2)c2ccccc2)cc1 [Compound T23, 1,4-Ditritylaminomethyl benzene] ), measured melting point is 201

Entry under test: OC(c1ccccc1)(c1ccccc1)c1ccccc1Cl [Compound T3, (2-Chlorophenyl)diphenyl methanol] . Its melting point was 91

Kindly note the recorded melting point for OC(c1ccccc1)(c1ccccc1)c1ccc(F)cc1 [Compound T12, (4-Fluorophenyl)diphenyl methanol] , which is 120.5

Input OC(c1ccccc1)(c1ccccc1)c1ccc(Cl)cc1 [Compound T1, (4-Chlorophenyl)diphenyl methanol] . Output melting point: 82

Reported melting point of OC(c1ccccc1)(c1cccs1)c1cccs1 [Compound T35, Di-(2-thienyl)phenyl methanol] : 86

Documented melting point of CC(=O)NC(c1ccccc1)(c1ccccc1)c1ccccc1F [Compound T76] : 215

Recorded melting point (compound NC(=O)NC(c1ccccc1)(c1ccccc1)c1ccc(Cl)cc1 [Compound T29, N-[(4-Chlorophenyl)diphenylmethyl] urea] ): 228

Per the records, this compound ( N#CC(c1ccccc1)(c1ccccc1)c1ccccc1F [Compound T40] ) has melting point equal to 144

Consider c1ccc(C(c2ccccc2)(c2ccccc2)N2CCCC2)cc1 [Compound T7, 1-Tritylpyrrolidine] . Its measured melting point is 126

---

System under test: human IKCa1 channel (Homo sapiens)
Assay summary: cell-based
Response field class: enum, chosen by comparing Kd against label 0 = under 1000 nM, label 1 = from 1000 nM up to 9000 nM, label 2 = 9000 nM and over

Field: class (Kd) — entry: NC(=O)NC(c1ccccc1)(c1ccccc1)c1ccccc1 [Compound T24, N-trityl urea]
label 1

Any idea which band FC(F)(F)c1ccn(C(c2ccccc2)(c2ccccc2)c2ccccc2C(F)(F)F)n1 [Compound T59] is in?
label 2

Tag the class for CC(=O)NC(c1ccccc1)(c1ccccc1)c1ccccc1C(F)(F)F [Compound T83]
label 1

Just checking, what class would you give CC(=O)NC(c1ccccc1)(c1ccccc1)c1ccccc1Cl [Compound T75] here?
label 1

Returns: class label. Input: Clc1ccc(C(Nc2ccncc2)(c2ccccc2)c2ccccc2)cc1 [Compound T70]
label 2

Class? Entry: OC(c1ccccc1)(c1ccccc1)c1cccc(Cl)c1 [Compound T2, (3-Chlorophenyl)diphenyl methanol]
label 0

Which of the defined bands does the recorded Kd of N#CC(c1ccccc1)(c1ccccc1)c1ccc(Cl)cc1 [Compound T26] sit within?
label 0

// return the class label for NC(=O)NC(c1ccccc1)(c1ccccc1)c1ccc(F)cc1 [Compound T31, N-[(4-Fluorophenyl)diphenylmethyl] urea]
label 1

Which bin, given its Kd, does Clc1ccc(C(Nc2nccs2)(c2ccccc2)c2ccccc2)cc1 [Compound T64] occupy?
label 2

Consider Clc1ccccc1C(c1ccccc1)(c1ccccc1)n1cnnn1 [Compound T84] . To which Kd class does it belong?
label 0

State the class of the compound shown: N#CC(c1ccccc1)(c1ccccc1)c1ccccc1Cl [Compound T39]
label 0

Into which bin does this compound go? Clc1ccccc1C(Nc1ccncc1)(c1ccccc1)c1ccccc1 [Compound T67]
label 2

Which class is correct for the following compound? COc1ccc(C(O)(c2ccc(OC)cc2)c2ccc(OC)cc2)cc1 [Compound T16, Tris-(4-methoxyphenyl) methanol]
label 2

Dear colleague, I would appreciate it if you could identify the bin for FC(F)(F)c1ccccc1C(Nc1nccs1)(c1ccccc1)c1ccccc1 [Compound T72] and reply at your convenience.
label 2

Band for OC(c1ccccc1)(c1ccccc1)c1ccccc1C(F)(F)F [Compound T54] ?
label 0

Please classify: c1ccc(C(c2ccccc2)(c2ccccc2)N2CCCC2)cc1 [Compound T7, 1-Tritylpyrrolidine]
label 2

Hi, small favor: classify OC(c1ccccc1)(c1ccccc1)c1ccccc1Cl [Compound T3, (2-Chlorophenyl)diphenyl methanol] by its Kd when you get a moment.
label 0

Hello team, could you let me know which band the following compound falls into: CC(=O)NC(c1ccccc1)(c1ccccc1)c1ccccc1F [Compound T76]
label 1

Categorize the following entry: Fc1ccccc1C(Nc1nccs1)(c1ccccc1)c1ccccc1 [Compound T78]
label 2

# bin lookup: classify N#CC(c1ccccc1)(c1ccccc1)c1ccc(F)cc1 [Compound T27] by its Kd
label 0

Hi there! Could you help me figure out the category for FC(F)(F)c1ccn(C(c2ccccc2)(c2ccccc2)c2ccccc2Cl)n1 [Compound T65] please?
label 1

Please classify: Cc1ccn(C(c2ccccc2)(c2ccccc2)c2ccccc2Cl)n1 [Compound T63]
label 1

Exercise: read the entry Fc1ccccc1C(c1ccccc1)(c1ccccc1)n1cccn1 [Compound T46] and state which class it falls under.
label 0

Where these numbers come from: patent US7235577B1
